Molecular target: ABHD12 (Mus musculus)
Construct: from tissue; host or cells: brain membrane proteome
Sequence (Q99LR1 whole entry): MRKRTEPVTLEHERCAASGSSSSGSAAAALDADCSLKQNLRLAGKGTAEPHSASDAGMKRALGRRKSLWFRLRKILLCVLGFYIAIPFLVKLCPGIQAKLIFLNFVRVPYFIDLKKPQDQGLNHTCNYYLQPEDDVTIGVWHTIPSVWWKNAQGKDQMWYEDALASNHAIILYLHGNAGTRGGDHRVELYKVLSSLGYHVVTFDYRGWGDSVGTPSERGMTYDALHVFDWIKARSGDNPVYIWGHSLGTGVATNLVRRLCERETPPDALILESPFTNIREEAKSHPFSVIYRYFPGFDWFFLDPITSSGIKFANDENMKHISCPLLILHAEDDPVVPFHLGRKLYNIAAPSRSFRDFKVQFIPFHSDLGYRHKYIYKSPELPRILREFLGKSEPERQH
Test: Gel-based competitive ABPP, JJH350 probe vs brain membrane proteome
Type: biochemical
Details: 10 μM compound, read-out: % Inhibition @ 10 μM (ABPP gel_JJH350 probe vs brain mem)

>  <COMPOUND>
Fc1cc(C(F)(F)F)cnc1N1CCC(NC(=S)Nc2cccnc2)CC1 [Example 21]

>  <inhibition at 10 µM>
≥ 75%

$$$$
>  <COMPOUND>
FC(F)(F)c1cccc(Oc2ccnc(N3CCC(NC(=S)Nc4cccnc4)CC3)c2)c1 [Example 52]

>  <inhibition at 10 µM>
≥ 75%

$$$$
>  <COMPOUND>
FC(F)(F)c1cnc(N2[C@@H]3CC[C@H]2CC(NC(=S)Nc2cccnc2)C3)c(Cl)c1 (stereo partly drawn) [Example 85]

>  <inhibition at 10 µM>
50 to 75%

$$$$
>  <COMPOUND>
CC(=O)c1ccnc(N2CCC(NC(=S)Nc3cccnc3)CC2)c1 [Example 76]

>  <inhibition at 10 µM>
25 to 50%

$$$$
>  <COMPOUND>
FC(F)(F)c1cccc(N2CCC(NC(=S)Nc3cccnc3)CC2)n1 [Example 29]

>  <inhibition at 10 µM>
≥ 75%

$$$$
>  <COMPOUND>
FC(F)(F)Oc1ccccc1Oc1ccnc(N2CCC(NC(=S)Nc3cccnc3)CC2)c1 [Example 50]

>  <inhibition at 10 µM>
≥ 75%

$$$$
>  <COMPOUND>
Fc1ccc(COc2ccnc(N3CCC(NC(=S)Nc4cccnc4)CC3)c2)cc1F [Example 42]

>  <inhibition at 10 µM>
≥ 75%

$$$$
>  <COMPOUND>
FC(F)(F)c1cc(N2CCC(NC(=S)Nc3cccnc3)CC2)ncc1Cl [Example 25]

>  <inhibition at 10 µM>
≥ 75%

$$$$
>  <COMPOUND>
FC(F)(F)Oc1cc(Oc2ccnc(N3CCC(NC(=S)Nc4cccnc4)CC3)c2)ccc1Cl [Example 57]

>  <inhibition at 10 µM>
≥ 75%

$$$$
>  <COMPOUND>
FC(F)(F)c1cccnc1N1CCC(NC(=S)Nc2cccnc2)CC1 [Example 16]

>  <inhibition at 10 µM>
25 to 50%

$$$$
>  <COMPOUND>
FC(F)(F)Oc1ccc(Oc2ccnc(N3CCC(NC(=S)Nc4cccnc4)CC3)c2)c(Cl)c1 [Example 55]

>  <inhibition at 10 µM>
≥ 75%

$$$$
>  <COMPOUND>
FC(F)(F)c1ccccc1-c1ccnc(N2CCC(NC(=S)Nc3cccnc3)CC2)c1 [Example 24]

>  <inhibition at 10 µM>
50 to 75%

$$$$
>  <COMPOUND>
Fc1cc(Oc2ccnc(N3CCC(NC(=S)Nc4cccnc4)CC3)c2)ccc1OC(F)(F)F [Example 56]

>  <inhibition at 10 µM>
≥ 75%

$$$$
>  <COMPOUND>
S=C(Nc1cccnc1)NC1CCN(c2cc(Oc3ccccc3)ccn2)CC1 [Example 40]

>  <inhibition at 10 µM>
≥ 75%

$$$$
>  <COMPOUND>
Fc1ccc(-c2ccnc(N3CCC(NC(=S)Nc4cccnc4)CC3)c2)cc1F [Example 48]

>  <inhibition at 10 µM>
≥ 75%

$$$$
>  <COMPOUND>
Fc1ccc(-c2ccnc(N3CCC(NC(=S)Nc4cccnc4)CC3)c2)cc1 [Example 47]

>  <inhibition at 10 µM>
≥ 75%

$$$$
>  <COMPOUND>
S=C(Nc1cccnc1)NC1CCN(c2cc(Cl)ccn2)CC1 [Example 28]

>  <inhibition at 10 µM>
≥ 75%

$$$$
>  <COMPOUND>
FC(F)(F)Oc1ccc(COc2ccnc(N3CCC(NC(=S)Nc4cccnc4)CC3)c2)cc1 [Example 39]

>  <inhibition at 10 µM>
≥ 75%

$$$$
>  <COMPOUND>
Cc1cnc(N2CCC(NC(=S)Nc3cccnc3)CC2)c(Cl)c1 [Example 8]

>  <inhibition at 10 µM>
≥ 75%

$$$$
>  <COMPOUND>
Fc1ccc(OC(F)(F)F)cc1Oc1ccnc(N2CCC(NC(=S)Nc3cccnc3)CC2)c1 [Example 58]

>  <inhibition at 10 µM>
≥ 75%

$$$$
>  <COMPOUND>
S=C(Nc1cccnc1)NC1CCN(c2cc(OCC3CC3)ccn2)CC1 [Example 31]

>  <inhibition at 10 µM>
≥ 75%

$$$$
>  <COMPOUND>
FC1(F)CCC(Oc2ccnc(N3CCC(NC(=S)Nc4cccnc4)CC3)c2)CC1 [Example 35]

>  <inhibition at 10 µM>
≥ 75%

$$$$
>  <COMPOUND>
FC(F)Oc1ccc(Oc2ccnc(N3CCC(NC(=S)Nc4cccnc4)CC3)c2)cc1 [Example 62]

>  <inhibition at 10 µM>
≥ 75%

$$$$
>  <COMPOUND>
FC(F)(F)Oc1cccc(-c2ccnc(N3CCC(NC(=S)Nc4cccnc4)CC3)c2)c1 [Example 23]

>  <inhibition at 10 µM>
≥ 75%

$$$$
>  <COMPOUND>
FC(F)(F)c1cc(Cl)cnc1N1CCC(NC(=S)Nc2cccnc2)CC1 [Example 18]

>  <inhibition at 10 µM>
≥ 75%

$$$$
>  <COMPOUND>
Fc1ccc(Oc2ccnc(N3CCC(NC(=S)Nc4cccnc4)CC3)c2)cc1 [Example 41]

>  <inhibition at 10 µM>
≥ 75%

$$$$
>  <COMPOUND>
Fc1cc(Cl)ccc1Oc1ccnc(N2CCC(NC(=S)Nc3cccnc3)CC2)c1 [Example 43]

>  <inhibition at 10 µM>
≥ 75%

$$$$
>  <COMPOUND>
FC(F)(F)c1ccnc(N2CCC(NC(=S)Nc3cccnc3)CC2)c1 [Example 15]

>  <inhibition at 10 µM>
≥ 75%

$$$$
>  <COMPOUND>
CN(C(=S)Nc1cccnc1)C1CCN(c2ncc(C(F)(F)F)cc2Cl)CC1 [Example 82]

>  <inhibition at 10 µM>
50 to 75%

$$$$
>  <COMPOUND>
FC(F)(F)c1cnc(NCCCCCCNC(=S)Nc2cccnc2)c(Cl)c1 [Example 84]

>  <inhibition at 10 µM>
50 to 75%

$$$$
